Please go through the items and note down their composite z-score.
tested on: wheat germ agglutinin (Triticum aestivum), Alexa647-labelled; assay: wheat germ agglutinin binders on compound microarrays, profiling panel, artefact control for SMM control-protein annotation, biochemical, small-molecule microarray, 635/667 nm fluorescence (AID 1140); settings: WGA-A647 binding, 635 nm fluorescence, higher = more signal;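 further: score merges 667 nm feature emission with signal to noise over triplicate slides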
Answers are plain numbers.

Compound: CC(C)NC(=O)[C@@H]1c2ccccc2C(=O)N(CC23CC4CC(CC(C4)C2)C3)[C@H]1c1ccc(CO)cc1
composite z-score: 0.298

Compound: COc1ccc([Si](C)(C)[C@@H]2[C@@H](CCO)O[C@]3(C(=O)N(Cc4ccc(NC(C)=O)cc4)c4ccccc43)[C@H]2C)cc1
composite z-score: 0.771

Compound: C[C@@H]1C=CCC(=O)OC[C@H](C)C(=O)OC[C@H]2O[C@H]1C=C[C@H]2O
composite z-score: 0.59

Compound: CCCC[C@H]1OB(O)C[C@H]2C1=C(C)C[C@H]1C(=O)N(C)C(=O)[C@H]12
composite z-score: 0.556

Compound: O=C1C2C=CC(C(O)c3ccc([N+](=O)[O-])cc3)N(Nc3ccc([N+](=O)[O-])cc3)C2C(=O)N1c1ccccc1 (configuration not stated)
composite z-score: 1.37

Parameter requested: composite z-score. Apply to each item below.
1. CCN1C(=O)[C@H]2[C@H]3[C@H](O)[C@H](O)CC(=NO[C@@H]4O[C@H](CO)[C@@H](O)[C@H](O)[C@H]4O)[C@@H]3CC[C@H]2C1=O
2. CCN1C(=O)[C@H]2[C@H]3[C@H](O)[C@H](O)CC(=NOC(C)CN4CCCCc5nc(C)c(C)cc54)[C@@H]3CC[C@H]2C1=O (some centres not stated)

1. 0.714
2. 0.0283
